Just for reference, PubChem BioAssay AID1963828 is where these values come from.

Tested on: 991263-137-R1-J2-PDC complex spheroid viability;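 note: spheroids exposed to compounds for 7 days before readout; 100% = DMSO vehicle control viability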
Assay: Anticancer human tumor 991263-137-R1-J2-PDC patient-derived colon adenocarcinoma cell line growth inhibition [POLQ]
Settings: second compound 0.1 µM; first compound 0.316 µM; stronger effect = lower value
READOUT NAME: viability, T/C (%)

[[record]]
compound = "COc1cccc2c1C(=O)c1c(O)c3c(c(O)c1C2=O)CC(O)(C(=O)CO)CC3OC1CC(N)C(O)C(C)O1 (stereo not drawn) + COC1C(OC(N)=O)C(O)C(Oc2ccc3c(O)c(NC(=O)c4ccc(O)c(CC=C(C)C)c4)c(=O)oc3c2C)OC1(C)C"
test_result = 92.5

[[record]]
compound = "O=C(c1cc(Cc2n[nH]c(=O)c3ccccc23)ccc1F)N1CCN(C(=O)C2CC2)CC1 + Nc1ccc(C#CCN(C(=O)Cc2ncc(C(F)(F)F)cc2C(F)(F)F)c2ccc(F)cc2)nn1"
test_result = 90.3

[[record]]
compound = "Nc1ccn(C2OC(CO)C(O)C2(F)F)c(=O)n1 (stereo not drawn) + Cc1cccc(N(C)C(=O)C2C(O)CCN2c2nc(C)cc(C(F)(F)F)c2C#N)c1"
test_result = 60.6

